Assay: NCI Yeast Anticancer Drug Screen. Data for the sgs1 mgt1 strain (AID 161);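 also: 0% = growth of cultures given vehicle only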
Conditions: S. cerevisiae sgs1 mgt1 strain, at 5.0 µM (retest, dose inferred, filed as 0.5), active compounds read high
Experimental: Growth inhibition of yeast strains with defined genetic alterations is measured as a screen for potential anti-cancer activity. Selected strains with alterations in DNA damage repair or cell cycle control were exposed to compounds and growth inhibition was measured relative to vehicle treated controls. The strain used in this assay is sgs1 mgt1
This is part of a sample that, as a whole, favours compounds with a hit. Of some 79,000 tested, about 15% had one in any assay.
quantity.measured: growth inhibition (%)
Answers are plain numbers, in %.

Go through the items and report each one's growth inhibition.
1. CC(C)c1c(P(=O)(c2ccccc2)c2ccccc2)n(C)c2ccccc12
2. COc1ccc(C(=O)C(c2ccc(OC)cc2)C2(O)C(=O)Nc3c(C)cc(Cl)cc32)cc1 (stereo unspecified)
3. CCCCC(CC)COP(=O)(OCC(CC)CCCC)OCC(CC)CCCC (stereo unspecified)
4. CNC(=O)OCC1=CC(=O)C(OC)=C(OC)C1=O

Result:
-30
-9
9
-10

Go through the items and report each one's growth inhibition.
1. CCCCCCCCCCOC1C(C(O)CNCCCN(C)C)OC2OC3(CCCCC3)OC21 (stereo unspecified)
2. Nc1ccc(O)c(=O)cc1

Result:
1: 7; 2: 0

====

Assign growth inhibition to each entry below.
assay: NCI Yeast Anticancer Drug Screen. Data for the rad50 strain (AID 155);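 also: 0% = growth of vehicle-only cultures of the same strain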; details: S. cerevisiae rad50 strain growth inhibition; at 5.0 µM (retest, dose inferred, filed as 0.5); active compounds read high
The panel holds about 79,000 compounds, 15% with a hit somewhere; the sample as a whole holds those more often.
Answers are plain numbers, in %.

Please review the following examples before continuing.
compound	quantity.measured	unit.tag	reported
COc1ccc(C=O)cc1C[P+](c1ccccc1)(c1ccccc1)c1ccccc1	growth inhibition	%	46
COc1ccc(C(=O)C(c2ccc(OC)cc2)C2(O)C(=O)Nc3c(Cl)cc(Cl)cc32)cc1 (stereo not drawn)	growth inhibition	%	37

Go through the items and report each one's growth inhibition.
1. CCCCCCCCCCCC(=O)OCC(C)C
2. CCCCCCCCCCCCCC(N)c1ccc(C)cc1 (stereo not drawn)
3. Clc1ccccc1NN(Cc1ccccn1)c1ccccc1Cl
4. CC([NH-])C(=O)O.[Cu+2].[NH-]C(Cc1cnc[nH]1)C(=O)O (stereo not drawn)

Result:
5
60
16
-8

Go through the items and report each one's growth inhibition.
1. NC(Cc1nn[nH]n1)C(=O)O (stereo not drawn)
2. COc1ccc(/C(O)=C/c2nc3ccc([N+](=O)[O-])cc3[nH]c2=O)cc1
3. CN1C(=O)c2cccc3c([N+](=O)[O-])ccc(c23)C1=O
4. CC(=O)OCc1c2ccccc2c(C)c2c1cc(F)c1ccccc12
5. CCCCCCCCCCCCCCSC(=N)N
6. CCN1C(Cl)=NS(=O)(=O)c2ccccc21
7. N#C/C(=C1C=C/C(=N/O)C=C/1Cl)c1ccccc1

Result:
1. 3
2. 12
3. -2
4. 35
5. 99
6. 17
7. -3

====

assay: NCI Yeast Anticancer Drug Screen. Data for the cln2 rad14 strain (AID 165);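 also: 0% = growth equal to vehicle treated cultures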; conditions: S. cerevisiae cln2 rad14 strain, at 50.0 µM (retest, dose inferred, filed as 5.0), active compounds read high
This is part of a sample that, as a whole, favours compounds with a hit. Of some 79,000 tested, about 15% had one in any assay.
Class yes (1): growth inhibition at least 30%. Class no (0): growth inhibition below 30%.

compound	qualitative.label
CC(=O)CC1CCC(=O)/C=C/C(=O)OC(CC(C)=O)CCC(=O)/C=C/C(=O)O1 (centres undefined)	no (0)
O=C1/C(=C/N2CCN(c3ccccc3)CC2)Cc2c(Cl)cccc21	yes (1)
COC1=CC(=O)c2c(O)c3c(c(O)c2C1=O)OC1(Oc2c(cc4cc(C)oc(=O)c4c2O)CC1O)C3O (centres undefined)	yes (1)
CCOc1ccc2c(ccc(/C=C\c3cc(C)c4cccnc4c3O)[n+]2C)c1	yes (1)

Q: Quick check, growth inhibition >= 30%? CN(C)CCCC(C#N)(CCCN(C)C)c1ccccc1
Result: no (0)

Q: Quick check, growth inhibition >= 30%? Cc1cc(=O)n(C)c2c(C)cccc12
Result: no (0)

Q: Quick check, growth inhibition >= 30%? CC(=O)Nc1n[n+]([O-])c2cc(C)ccc2[n+]1[O-]
Result: yes (1)

Q: Quick check, growth inhibition >= 30%? OC1(c2ccccc2)c2ccccc2C(O)(c2ccccc2)c2cc3c(cc21)CCCC3 (centres undefined)
Result: yes (1)

Q: Quick check, growth inhibition >= 30%? COc1ccc(C2c3cn[nH]c3CC3CCCCC32)cc1 (centres undefined)
Result: yes (1)

Q: Quick check, growth inhibition >= 30%? c1ccc(Nc2cccc3ccccc23)cc1
Result: yes (1)

Q: Quick check, growth inhibition >= 30%? CCCCc1ccc(Nc2nc(N)c3[nH]cnc3n2)cc1
Result: yes (1)

Q: Quick check, growth inhibition >= 30%? COc1cccc(NC(=S)NC(Cc2ccccc2)c2ccccc2)c1 (centres undefined)
Result: yes (1)

Q: Quick check, growth inhibition >= 30%? OCc1ccc2c(c1)CC1(C2)Cc2cc3c(cc2C1O)CCC3 (centres undefined)
Result: yes (1)

Q: Quick check, growth inhibition >= 30%? NC(=O)NC(=O)N/N=C/c1ccc([N+](=O)[O-])o1
Result: no (0)
